Quantity: melting point

- O=C(O)COc1cc(F)ccc1F: 151 to 153 °C
- CCc1nnc(CO)n1C: 41 to 43 °C
- O=C(O)CNC(=O)c1ccc(C(=O)NCC(=O)O)cc1: 261 to 263 °C
- Nc1cc(Cl)c(N)cc1Cl: 164 to 166 °C
- CC(C)(C)OC(=O)c1cccc(C(=O)O)c1: 147 to 149 °C
- Cc1nc(C(=O)O)nn1-c1nnc[nH]1: 225 to 227 °C
- Sc1nnc(NCCc2ccccc2)s1: 143 to 145 °C
- CCNS(=O)(=O)c1cc(/C=C/C(=O)O)ccc1OC: 198 to 200 °C
- Nc1ccn(Cc2cn3ccccc3n2)n1: 144 to 146 °C
- O=C(O)c1ccc(-c2cnccn2)cn1: 199 to 201 °C

I need melting point for every entry listed below, if you could help.
1. O=C(O)COc1cccc(Br)c1
2. Nc1nc2c(s1)CNCC2
3. CC1CCCC(C(N)C(=O)O)C1 (centres undefined)
4. O=C(O)C=Cc1ccccc1OCc1cccc(Br)c1

Result:
108 to 110 °C
176 to 178 °C
301 to 303 °C
148 to 150 °C

Data credit: a melting point compilation (Tetko et al.)
